SYSTEM_UNDER_TEST: CDK2/cyclin A (Homo sapiens, UniProt P24941)
Construct: cyclin A: E. coli
ASSAY_NAME: Inhibition of CDK2/cyclin A retinoblastoma kinase activity (Ki; % inhibition)
MEASUREMENT_SETUP: apparent Ki, CDK2/cyclin A, Rb substrate
Counter-ions that a name gives are not always drawn.
PROPERTY: Ki (nM)

Previously resolved entries follow.
Q: Fill in reported Ki for this entry: CN(C)CCNC(=O)c1ccc(Nc2nc(N)c(C(=O)C34CC5CC(CC(C5)C3)C4)s2)cc1
Ans: 3400

Q: Give recorded Ki. C[C@@H](CNC(=O)c1ccc(Nc2nc(N)c(C(=O)c3c(F)cccc3F)s2)cc1)N(C)C
Ans: 165

Q: Provide Ki value for the following compound: CN(C)C1(CNC(=O)c2ccc(Nc3nc(N)c(C(=O)c4c(F)cccc4F)s3)cc2)CCCC1
Ans: 84

(1) CN1CCC[C@H]1CNC(=O)c1ccc(Nc2nc(N)c(C(=O)c3c(F)cccc3Cl)s2)cc1
(2) Cn1ccnc1CNC(=O)c1ccc(Nc2nc(N)c(C(=O)c3c(F)cccc3F)s2)cc1 [Example A50, Hydrochloride Salt]
(3) CN(C)CCN(C)C(=O)c1ccc(Nc2nc(N)c(C(=O)c3c(F)cccc3F)s2)cc1
Q: Sort the 3 compounds by Ki; largest first, smallest last. Answer format: the labels, in the requested order.
Ans: 3, 2, 1
(3: 170 nM, 2: 20 nM, 1: 5.6 nM)
